method-notes: Oral bioavailability in Sprague-Dawley rat at 30 mg/kg
Type: ADME, organism-based
condition-context: in vivo
endpoint-name: bioavailability (%)
Just the number please, in %, no unit attached.

Record C[C@]1(C(=O)N(CCCC(=O)O)Cc2cccc(Cl)c2)CCN1C(=O)c1csc2ccccc12 [GLPG-0974] . Reported bioavailability: 40

###

method-notes: AUC (0 to 24 hrs) in Sprague-Dawley rat at 5 mg/kg, po by mass spectrometry
Format: ADME, organism-based
Parameters: time < 24 hr, dose 5 mg/kg, route oral
condition-context: plasma
endpoint-name: AUC(0-t) at 24 h (ng·h/mL)
The figure you give is taken to be in ng·h/mL; do not add the unit.

Lab book: AUC(0-t) at 24 h of CC1(C(=O)N(CCCC(=O)O)Cc2ccc(Cl)cc2)CCN1C(=O)c1csc2ccccc12 (configuration not stated) noted as 1010

# compound CC1(C(=O)N(CC(=O)O)Cc2ccc(Cl)cc2)CCN1C(=O)Cc1csc2ccccc12 (configuration not stated) ; its AUC(0-t) at 24 h = 362

The reported value for CC1(C(=O)N(CC(=O)O)Cc2ccc(Cl)cc2)CCN1C(=O)Cn1cnc2ccccc21 (configuration not stated) in terms of AUC(0-t) at 24 h is 1460

Entry C[C@]1(C(=O)N(CCCC(=O)O)Cc2cccc(Cl)c2)CCN1C(=O)c1csc2ccccc12 [GLPG-0974] , AUC(0-t) at 24 h reported as 1210

Notebook: CC1(C(=O)N(CCCC(=O)O)Cc2ccc3ccoc3c2)CCN1C(=O)Cc1csc2ccccc12 (configuration not stated) , AUC(0-t) at 24 h read as 35

The reported value for CC1(C(=O)N(CCCC(=O)O)Cc2ccc(Cl)cc2)CCN1C(=O)Cc1coc2ccccc12 (configuration not stated) in terms of AUC(0-t) at 24 h is 1980

GET /value?item= CC1(C(=O)N(CCCC(=O)O)Cc2cccc(Cl)c2)CCN1C(=O)c1csc2ccccc12 (configuration not stated) &field=AUC(0-t) at 24 h returns 1020

Short answer for Cc1cc(C)cc(CC(=O)N2CCC2(C)C(=O)N(CC(=O)O)Cc2ccc(Cl)cc2)c1 (configuration not stated) : AUC(0-t) at 24 h was 1160

compound CC1(C(=O)N(CCCC(=O)O)Cc2ccc3cn[nH]c3c2)CCN1C(=O)Cc1csc2ccccc12 (configuration not stated) , AUC(0-t) at 24 h observed: 26

Entry CC1(C(=O)N(CCCC(=O)O)Cc2ccc(Cl)cc2)CCN1C(=O)Cc1csc2ccccc12 (configuration not stated) — recorded AUC(0-t) at 24 h = 542

Noted for CC1(C(=O)N(CCCC(=O)O)Cc2ccc(C(F)(F)F)cc2)CCN1C(=O)Cc1csc2ccccc12 (configuration not stated) : its AUC(0-t) at 24 h reads 378

Field AUC(0-t) at 24 h (entry CC1(C(=O)N(CC(=O)O)Cc2ccc(Cl)cc2)CCN1C(=O)Cc1coc2ccccc12 (configuration not stated) ) reads 575
